System: NCI-H226 lung
Test: NCI tumour cell line growth inhibition, 48 h
MEASURED_METRIC: TGI

{"columns": ["STRUCTURE_SMILES_STRING", "ASSAY_SYSTEM", "READOUT_VALUE"],
 "data": [
  ["NS(=O)(=O)c1nnc(NS(=O)(=O)c2cccc3cccnc23)s1", "NCI-H226 lung", "> 100 µM"],
  ["O=C(O)c1cc(NCc2cc(O)ccc2O)ccc1O", "NCI-H226 lung", "> 100 µM"],
  ["COc1cccc(N2CC(O)=C(c3nc4ccccc4s3)C2=N)c1", "NCI-H226 lung", "> 100 µM"]
]}

====

Test system: MOLT-4 leukemia
Test: NCI tumour cell line growth inhibition, 48 h
MEASURED_METRIC: TGI

{"columns": ["COMPOUND", "READOUT_VALUE"],
 "data": [
  ["C[Si](C)(C)OC1(C#N)c2ccccc2CCCC12CCCC2 (stereo not given)", "61.7 µM"],
  ["N=c1ncn(C/C=C/c2ccccc2)c2nc[nH]c12", "36.5 µM"],
  ["Cc1ccc(NC(=O)COc2ccc(Cl)cc2)cc1Cl", "> 100 µM"],
  ["CC(=O)C1=C(C)N(Cc2ccccc2)C2(O)C=CC(=O)C3=C(O)c4ccccc4C(=O)C312 (stereo not given)", "> 100 µM"],
  ["Cc1ccsc1C(NC(=O)c1ccccc1)c1cc(Cl)c2cccnc2c1O (stereo not given)", "34.6 µM"],
  ["Cc1ccc2ccccc2c1CSc1nc(N)nc2c1ncn2CC(C)C", "29.7 µM"],
  ["O=C1c2ccccc2C(=O)N1CC#CCO", "> 100 µM"],
  ["O=C(Nc1ccc(Br)c2ccccc12)c1ccc2ccccc2c1O", "> 100 µM"],
  ["C=CCc1c(O)c(C(=O)/C=C/c2ccc(Cl)cc2)c(OC)c2ccoc12", "> 100 µM"],
  ["Clc1cnc(Nc2ccc(OCCN3CCCC3)cc2)nc1NCc1ccco1", "8.4 µM"],
  ["COc1c(C(N)=O)cc(-c2ccc(Cl)cc2)cc1-c1ccc(S(N)(=O)=O)cc1", "> 20.7 µM"],
  ["N#CC1=C(O)NC(O)=C(C#N)C1c1c(Cl)cccc1Cl", "> 100 µM"],
  ["C1=CC2C(C3CN(c4ccccc4)N=C13)C1C3C4C=CC21C=CC43 (stereo not given)", "> 100 µM"],
  ["CCCCCCCCN(CCCCCCCC)CC(O)c1cc(-c2ccccc2)nc2ccc(OC)cc12 (stereo not given)", "> 100 µM"],
  ["CC(C)OC1=C(CC2(C)OCCO2)C(=O)C12OCCO2", "> 100 µM"]
]}

====

Test system: MCF7 breast
Test: NCI tumour cell line growth inhibition, 48 h
TGI values for the compounds below.
MEASURED_METRIC: TGI

{"columns": ["COMPOUND", "MEASURED_METRIC", "READOUT_VALUE"],
 "data": [
  ["NS(=O)(=O)c1ccc(-c2ccc([As](=O)(O)O)cc2)cc1", "TGI", "> 100 µM"],
  ["N#Cc1ccc(-c2ccc(Cl)cc2)n(C2OC(CO)C(O)C(O)C2O)c1=S (centres undefined)", "TGI", "> 100 µM"],
  ["CN(C)C(=O)N1N[C@H](c2ccccc2)[C@@H]1c1ccccc1", "TGI", "> 100 µM"],
  ["[N-]=[N+]=Nc1cc(=O)[nH]c2ccccc12", "TGI", "> 100 µM"],
  ["CC(C)OC1=C(CC2(C)OCCO2)C(=O)C12OCCO2", "TGI", "> 100 µM"],
  ["Cn1nc(C(F)(F)F)cc1-c1cc(Cl)c(OCc2ccc(Cl)cc2)c(-c2ccc(Cl)c(C(F)(F)F)c2)c1O", "TGI", "5.33 µM"],
  ["COc1cc2c3c(n(C)c(=O)c2cc1OC)-c1cc2c(cc1/C3=C\\CCCCl)OCO2", "TGI", "> 100 µM"],
  ["CC1=C(CCC(C)CO)O[C@H]2C[C@H]3[C@@H]4CC[C@H]5C[C@@H](O)CC[C@]5(C)[C@H]4CC(=O)[C@]3(C)[C@@H]12 (some centres undefined)", "TGI", "> 59.4 µM"],
  ["CCC(=O)NC1=C(Cl)C(=O)C(NC(=O)CC)=C(Cl)C1=O", "TGI", "28.3 µM"],
  ["Cc1[nH]nc(C(F)(F)F)c1Cc1sc2c(c1C(=O)N1C[C@](C)(O)CO1)c(=O)n(C)c(=O)n2C(C)C", "TGI", "> 100 µM"],
  ["Clc1cnc(Nc2ccc(OCCN3CCCC3)cc2)nc1NCc1ccco1", "TGI", "10.2 µM"],
  ["O=C(Nc1cccc([N+](=O)[O-])c1)c1cccc(C(=O)Nc2cccc([N+](=O)[O-])c2)c1", "TGI", "> 100 µM"],
  ["O=C(O)c1cc(NCc2cc(O)ccc2O)ccc1O", "TGI", "> 100 µM"],
  ["CC(=O)OC1CC2(C)C(=CC1C1SCCS1)CCC1C2CCC2(C)C(OC(C)=O)CCC12 (centres undefined)", "TGI", "> 100 µM"],
  ["CCC(=O)OCOc1ccc(/C=C2\\CCC(CN(C)C)C2=O)cc1 (centres undefined)", "TGI", "10.1 µM"],
  ["COc1cc(OC)c(/C=C/C(=O)c2c(OC)cc(OC)cc2OC)c(OC)c1", "TGI", "> 100 µM"],
  ["Clc1nc2nc(N3CCNCC3)nc(N3CCCC3)c2[nH]1", "TGI", "32.2 µM"],
  ["CC1(C)OCC2OC(n3cnc4c(N)nc(Cl)nc43)C(OS(C)(=O)=O)C2O1 (centres undefined)", "TGI", "> 100 µM"],
  ["COc1cc2c(cc1OC)C(Cl)C(c1ccc(Br)cc1)=C2Cl (centres undefined)", "TGI", "21.2 µM"]
]}

====

Tested on: CAKI-1 renal
Assay: NCI tumour cell line growth inhibition, 48 h

{"columns": ["COMPOUND", "TGI"],
 "data": [
  ["OC(c1cc(C(F)(F)F)nc2c(Cl)cc(Cl)cc12)C1CCCCN1 (configuration not stated)", "21.2 µM"],
  ["COc1ccc(N=NC2=C(O)CCC2=O)cc1", "> 100 µM"],
  ["O=C(NC1CCC[C@H]1OC(=O)c1ccccc1)c1ccccc1 (some centres not stated)", "> 100 µM"],
  ["CCC(O)CCCCCCCCCCCCCCC(=O)O (configuration not stated)", "> 100 µM"],
  ["O=C(O)c1cc(NCc2cc(O)ccc2O)ccc1O", "> 100 µM"],
  ["CC(C)N1CC2CC(CN(C(=O)c3ccc(Cl)cc3)C2)C1", "> 100 µM"],
  ["O=c1oc2ccccc2c(O)c1C(c1ccc(OCc2ccccc2)cc1)c1c(O)c2ccccc2oc1=O", "81.2 µM"]
]}

====

Tested on: MOLT-4 leukemia
Assay: NCI tumour cell line growth inhibition, 48 h

{"columns": ["COMPOUND", "TGI"],
 "data": [
  ["CCCN=C1NC(C)=CSC(Nc2ccccc2)=C1C#N", "> 100 µM"],
  ["CC1=CC2(C)/C=C(C)/C=C\\CC(O)/C=C3/C=CC(=C4C(=O)OC2(CC1C)C4=O)OC3 (stereo unspecified)", "> 20.4 µM"],
  ["O=S(=O)(O)c1ccc(O)c(N=Nc2c(O)ccc3ccccc23)c1", "> 100 µM"],
  ["O=C(Nc1cccc([N+](=O)[O-])c1)c1cccc(C(=O)Nc2cccc([N+](=O)[O-])c2)c1", "> 100 µM"],
  ["COc1cc(C2c3cccc4cccc(c34)C3CCC(=O)N32)cc(OC)c1O (stereo unspecified)", "> 50 µM"],
  ["NC1CC(=O)c2c(-c3cccs3)sc(-c3cccs3)c21 (stereo unspecified)", "> 100 µM"]
]}

====

System: EKVX NSCLC
Assay: NCI tumour cell line growth inhibition, 48 h

{"columns": ["COMPOUND", "TGI"],
 "data": [
  ["Clc1cnc(Nc2ccc(OCCN3CCCC3)cc2)nc1NCc1ccco1", "6.47 µM"],
  ["O/N=C1\\C/C(=N\\O)c2c(Br)sc(Br)c21", "> 100 µM"],
  ["COC(=O)[C@]1(C)CCC[C@@]2(C)C3=C(CC[C@H]12)C[C@@H](CC(OC(C)=O)OC(C)=O)[C@@H](C)C3", "23.9 µM"],
  ["Cc1cc(C)[n+]2c(c1)C=CC2", "> 100 µM"],
  ["O=C(O)C(Cc1ccccc1)Cc1ccccc1", "> 100 µM"],
  ["C[C@]12CCC(=O)C=C1C[C@@H](O)[C@@H]1[C@@H]2CC[C@@]2(C)[C@H]1CC[C@]2(C)O", "> 100 µM"],
  ["COc1cc2nc(-c3cccs3)nc(Nc3ccccc3C(=O)NN)c2cc1OC", "> 100 µM"],
  ["O=C1OC(OC/C(Br)=C(\\Br)COC2OC(=O)C(Cl)=C2Cl)C(Cl)=C1Cl (stereo not given)", "22.8 µM"],
  ["CCN1CCN(C(=O)[C@]23CC[C@@H](C)[C@H](C)[C@@H]2C2=CC[C@@H]4[C@@]5(C)CCC(=O)C(C)(C)[C@@H]5CC[C@@]4(C)[C@]2(C)CC3)CC1", "2.42 µM"],
  ["COC(=O)Nc1nc2ccc(C(=O)c3cccc(I)c3)cc2[nH]1", "> 87.9 µM"],
  ["CCOc1ccc2c(c1)C(/C(C(Cl)=C(Cl)Cl)=[N+](/[O-])OC(=O)c1ccccc1)=N2", "> 100 µM"],
  ["Cc1ccc2sc3c(NCCCN)nc4ccccc4c3c(=O)c2c1", "4.09 µM"],
  ["COC(=O)/C=C1\\C(CO[Si](C)(C)C(C)(C)C)OC(n2cc(C)c(=O)n(C)c2=O)C1O[Si](C)(C)C(C)(C)C (stereo not given)", "> 100 µM"],
  ["CCn1c(CCCc2nc3c([nH]2)c(=O)n(C)c(=O)n3C)nc2c1c(=O)n(C)c(=O)n2C", "> 100 µM"],
  ["CCOP(=O)(OCC)C(Nc1ccc(Cl)cc1)c1ccc(F)cc1 (stereo not given)", "> 100 µM"],
  ["COCC(C#N)NC1CC(OC2CC(O)(C(=O)CO)Cc3c(O)c4c(c(O)c32)C(=O)c2c(OC)cccc2C4=O)OC(C)C1O (stereo not given)", "4.62 µM"],
  ["CC(=O)OC1CC2(C)C(=CC1C1SCCS1)CCC1C2CCC2(C)C(OC(C)=O)CCC12 (stereo not given)", "> 100 µM"],
  ["CC1(C)CC(=O)c2c(N)n[nH]c2C1", "> 100 µM"],
  ["CCN(CC)/N=C\\c1c2ccccc2cc2ccccc12", "> 100 µM"],
  ["Cc1nc(N)c(N2CCN(S(=O)(=O)N(Cc3ccccc3)Cc3ccccc3)CC2)c(=O)[nH]1", "> 100 µM"]
]}
